- Experimental system: T1, his-tagged human TIGIT (Acro Biosystems #TIT-H52H3) (human, UniProt Q495A1 22-141)
- T1 construct: Bought protein; also called His-tagged-TIGIT (human); not shown: his tag
- T1 sequence (looked up): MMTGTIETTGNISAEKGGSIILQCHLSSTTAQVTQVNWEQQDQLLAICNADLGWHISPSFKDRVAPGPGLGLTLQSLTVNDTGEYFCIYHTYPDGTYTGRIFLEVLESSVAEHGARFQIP
- Procedure text: ELISA, coated His-TIGIT, 1 ug/ml
Measured metric: Elisa OD450 (OD450)
Please reply with the bare figure in OD450 and do not write the unit itself.

Consider the worked cases shown below.
Binder	Measured metric	Output unit	Value measured
43586p2.B05 (scFv, V domains shown) VH: EVQLLESGGGLVQPGGSLRLSCAASGFTFSDYYMNWVRQAPGKGLEYVASINWNGGTTYYADSVKGRFTISRDNSKNTLYLQMSSLRAEDTAVYYCAKDQNWNFYYGMDVWGQGTTVTVSS VL: QSVLTQPPSASGTPGQRVTISCSGGSSNIGNNFVSWYQQLPGTAPKLLIYNEIKRPSGVPDRFSASKSGTSASLAISGLQSEDEADYYCASWDGSLRGWVFGGGTKLTVL	Elisa OD450	OD450	1.84
43586p2.G01 (scFv, V domains shown) VH: EVQLLESGGGLVQPGGSLRLSCAASGFTVSSNWMSWVRQAPGKGLEWVSTTSSSSWNNYTYYADSVKGRFTISRDNSKNTLYLQMNSLRAEDTAVYYCAKGSYGMDVWGQGTTVTVSS VL: QSVLTQPPSASGTPGQRVTISCSGSNSNIGAKYLYWYQQLPGTAPKLLIYLNDRRPSGVPDRFSGSKSGTSASLAISGLQSEDEADYYCAFWDDHLKGWVFGGGTKLTVL	Elisa OD450	OD450	2.03
43586p1.1.H8 (scFv, V domains shown) VH: EVQLLESGGGLVQPGGSLRLSCAASGFTFIDFWMSWVRQAPGKGLEWVSAISWIGDTYYYADSVKGRFTVSRDNSKNTVYLQMNSLRAEDTAVYYCAKHWTVYQYGMDVWGQGTTVTVSS VL: QSVLTQPPSASGTPGQRVIISCSGSTSDIETKYVSWYQQLPGTAPKLLIYGNHQRPSGVPDRFSGSKSGTSASLAISGLQSEDEADYYCTAWDNTLKSWVFGGGTKLTVL	Elisa OD450	OD450	1.93
43645p1.D7 (scFv, V domains shown) VH: EVQLLESGGGLVQPGGSLRLSCAASGFTFSRNSMSWVRQAPGKGLEWVSTINSGSSYTYYADSVKGRFTISRDNSKNTLYLQMNSLRAEDTAVYYCAKDNCNGYHCYGMDVWGLGTTVTVSS VL: QSVLTQPPSASGTPGQRVTISCSGSTSNVGDHYVHWYQQLPGTAPKLLIYKDDQRPSGVPDRFSGSKSGTSASLAISGLQSEDEADYYCSTWDNTLNGWVFGGGTKLTVL	Elisa OD450	OD450	2.06
43586p2.G10 (scFv, V domains shown) VH: EVQLLESGGGLVQPGGSLRLSCAASGFTFDDYVMSWVRQAPGKGLEWVSLINWSGGTTYYADSVKGRFTISRDNSKNTLYLQMNSLRAEDTAVYYCAKHWIVYQYGMDVWGQGTTVTVSS VL: QSVLTQPSSASGTPGQRVTISCSGTISNIETKYVSWYKYVSWYQQLPGTAPKLLIYNNVQRPSGVPDRFSGSQSGTSASLAISGLQSEDEAHYYCASWEGGLNSWVFGGGTKLTVL	Elisa OD450	OD450	2.21

Elisa OD450 recorded for this binder, 43645p1.G5 (scFv, V domains shown) VH: EVQLLESGGGLVQPGGSLRLSCAASGFTFSSYYMSWVRQAPGKGLEWVSAISIFSGDSTYYADSVKGRFTISRDNSKNTLYLQMNSLRAEDTAVYYCAKSHTVLQYGMDVWGQGTTVTVSS VL: QSVLTQPPSASGTPGQRVTISCSGVTSNIRNYYVSWYQQLPGTAPKLLIYGNDQRPSGVPDRFSGSKSGTSASLAISGLQSEDEADYYCGTWDNTLNAWVFGGGTKLTVL , is 1.94

Elisa OD450 recorded for this binder, 43586p1.2.C5 (scFv, V domains shown) VH: EVQLLESGGGLVQPGGSLRLSCAASGFTVSDHYMSWVRQAPGKGLEWVSTTSSTSWKNYTYYADSVKGRFSISRDNSENTLYLQMNGLRAEDTAVYYCAKGSYGMDVWGQGTTVTVSS VL: QSVLTQPPSASGTPGQRVTISCSGSNFNIGTKYLYWYQQLPGTAPKLLIYLDSQRPSGVPDRFSTSKPGTSASLAISGLQSEDEADYYCALWDDHLHGWVFGGGTKLTVL , is 2.03

Elisa OD450 recorded for this binder, 43352p1.A11 (scFv, V domains shown) VH: DVQLVESGGGVVRPGESLRLSCAASGFTFSSHAMSWVRQAPGEGLEWVSLTSGNGVSAYYADSVKGRFTISRDNSKNTLYLQMNSLSAEDTAIYYCARGTYLISFFDYWGLGTLVTVSS VL: QSVLTQPPSASGTPGQRVTISCSGISAKIGNNYVSWYQQLPGTAPKLLIYFNNQRPSGVPDRFSGSKSGTSASLAISGLQSEDEADYYCASWDDSLNAWLFGGGTKLTVL , is 0.677

Elisa OD450 recorded for this binder, 43586p2.D01 (scFv, V domains shown) VH: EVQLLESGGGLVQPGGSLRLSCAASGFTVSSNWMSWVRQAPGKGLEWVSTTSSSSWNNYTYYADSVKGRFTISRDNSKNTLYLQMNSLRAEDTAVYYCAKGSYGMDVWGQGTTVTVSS VL: QSVLTQPPSASGTPGQRVTISCSGSNSNIGAKYLYWYQQLPGTAPKLLIYLNDQRPSGVPDRFSGSKSGTSASLAISGLQSEDEADYYCAFWDDHLKGWVFGGGTKLTVL , is 1.95

Elisa OD450 recorded for this binder, 43645p1.C11 (scFv, V domains shown) VH: EVQLLESGGGLVQPGGSLRPSCATSGFTFSSYWMSWVRQAPGKGLEWVSGIHISDSTYYADSVKGRFTISRDNSKNTLYLQMNSLRAEDTAVYYCAKGHTVLQYGMDVWGQGTTVTVSS VL: QSGLTQPPSASGTPGQRVTISCSGDISNTRNNYVSWYQQLPGTAPKLLIYGNHQRPSGVPDRFSGSKSATSASLAISGLQSEDEADYYCGTWDNTLNAWVFGGGTKLTVL , is 2.18
